meta.source: PubChem BioAssay AID463074

test system: HMLE_sh_eGFP viability, CellTiter-Glo luminescence, 72 h; assay: cytotoxicity in HMLE control line with eGFP shRNA, dose response, counter-screen for HMLE_sh_ECad selective toxicity project, cell-based, HMLE_sh_eGFP, luminescence (AID 463074);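 further: counterscreen control line to flag general toxicity for the HMLE_sh_ECad screen; potency for loss of viability as luminescence drops below DMSO wells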
measurementLabel: AC50

* COc1ccc(-c2sc3cc(OC)c(OC)cc3c2-c2ccc(O)cc2)cc1 | 3.7 µM

// moving on: another record for AC50
query: Give the measured AC50 of `CN1CCN(/N=C/c2ccc(N(c3ccccc3)c3ccccc3)cc2)CC1` .
result: 6.89 µM

---

Entries and their AC50 values follow.
test system: HMLE_sh_eGFP viability, CellTiter-Glo luminescence, 72 h; test: cytotoxicity in HMLE control line with eGFP shRNA, dose response, counter-screen for HMLE_sh_ECad selective toxicity project, cell-based, HMLE_sh_eGFP, luminescence (AID 463074);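 further: counterscreen control line to flag general toxicity for the HMLE_sh_ECad screen; potency for loss of viability as luminescence drops below DMSO wells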
Calls of active or inactive are those of the source.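 Rule for the calls: active = AC50 no more than tenfold above the top dose tested, or full inhibition at every dose with a flat fit (cut at about 19 µM in these data); inconclusive = flat curve fit with inhibition between 30% and 70%, or poor fit; inactive = AC50 more than tenfold above the top dose tested.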

Please review the entries below; each comes with its answer.
• COc1ccc(-c2cc(=O)n(-c3ccc([N+](=O)[O-])cc3)[nH]2)cc1 = 11.3 µM
• Cc1cc(NC(=O)/C=C/c2ccc(Cl)cc2)no1 = > 19.5 µM (inactive)
• O=C1c2ccccc2C2=Nc3ccccc3SC(c3ccc(Cl)cc3)C12 (stereo not given) = 10.6 µM
• COc1cc(-c2ccc3c(=O)c4ccccc4n(C)c3c2)cc(OC)c1OC = 8.21 µM
• COC(=O)c1c(NC(=O)COc2ccc(Cl)cc2Cl)sc2c1CC(C)(C)NC2(C)C = 6.62 µM

query: Notebook: pull reported AC50 for HMLE_sh_eGFP viability, CellTiter-Glo luminescence, 72 h, entry `O=C(/C=C/c1ccc2c(c1)OCO2)NCCSCc1ccc(Cl)cc1`
result: 0.957 µM

query: For `O=C(Nc1ccc(Cl)cc1)Nc1ccccc1Sc1ncc([N+](=O)[O-])s1` then?
result: 6.81 µM

query: For Cc1ccc(F)c([C@H]2C3C=CCC(c4ccccc4)C3C(=O)N2Cc2ccccc2)c1 (stereo not given in full) then?
result: 6.52 µM

query: For `CNc1nc(SCc2ccccc2Cl)nc2c1CCCC2` then?
result: 8.77 µM

query: For `O=C(c1ccc(OCCN2CCCCC2)cc1)c1c(-c2ccc(O)cc2)sc2cc(O)ccc12` then?
result: 2.35 µM

query: For CCOc1ccc2nc(NC3=NC(c4ccc(OC)cc4)CC(=O)N3)nc(C)c2c1 (stereo not given) then?
result: 7.28 µM

query: For `O=C1/C(=C\c2cccnc2)CN(Cc2ccccc2)C/C1=C\c1cccnc1` then?
result: 3.9 µM

query: For `Cc1ccc(S(=O)(=O)Nc2ccc(C(OC(=O)c3ccccc3[N+](=O)[O-])(C(F)(F)F)C(F)(F)F)cc2)cc1` then?
result: 7.19 µM

query: For `CCc1c(C2(O)CCCCC2)[nH]c2cc(C(F)(F)F)ccc12` then?
result: 3.15 µM

query: For `C[C@@H]1CN([C@H](C)CO)C(=O)Cc2cc(NS(=O)(=O)c3ccc(Cl)cc3)ccc2O[C@H]1CN(C)Cc1ccc(C(F)(F)F)cc1` then?
result: 3.18 µM

query: For `CC1(C)Cc2c(C#N)c(NC3CCCCC3)nc(-c3ccco3)c2CO1` then?
result: 7.19 µM

query: For `C=CCC[C@H](Cc1ccc(F)cc1)C(=O)O[C@H](CNC(=O)[C@@H](CC=C)CC(=O)N(CCO)Cc1ccccc1)c1ccccc1` then?
result: 7.4 µM

query: For `O=C(NCCc1c[nH]c2ccccc12)C(=O)c1c[nH]c2ccccc12` then?
result: 6.75 µM

query: For `COc1ccc(/C=C/C(=O)c2ccc([N+](=O)[O-])o2)cc1` then?
result: 2.87 µM

query: For `CCOC(=O)C1=C(C)N2C(=C(C#N)[C@@H]1c1ccc(C(=O)OC)cc1)SC[C@@]2(O)C(C)(C)C` then?
result: 4.79 µM
